Please go through the items and note down their pIC50.
Test system: HIV in the HTLV-1 transformed cell line MT-4
ASSAY EXPLANATION: organism not typed
Type: cell-based
CONDITION INFO: MT4, 96 h, MT-4 cells; luciferase/cell titer glo readout after 96 hours; 10 point dose response
Keep in mind that pIC50 stands for -log10 of concentration in molar terms.

Summary for this compound, `Cc1ccc(-c2c(C)c3c(c(C)c2[C@H](OC(C)(C)C)C(=O)O)CN(C(=O)N2CCCOCC2)C3)cc1` : pIC50 is 7.92

Summary for this compound, COc1cccc(C(=O)N2Cc3c(C)c(-c4cc(F)c5c(c4C)CCCO5)c([C@H](OC(C)(C)C)C(=O)O)c(C)c3C2)c1C (atropisomer, axis not shown; (M)) : pIC50 is 7.43

Summary for this compound, Cc1ccc(-c2c(C)c3c(c(C)c2C(OC(C)(C)C)C(=O)O)CN(C(=O)OCc2ccccc2)C3)cc1 (stereo not drawn) : pIC50 is 5.89

---

Test system: HIV in the HTLV-1 transformed cell line MT-4
ASSAY EXPLANATION: organism not typed
Format: cell-based
CONDITION INFO: MT4, 96 h, MT-4 cells; luciferase/cell titer glo readout after 96 hours; 10 point dose response
Please go through the items and note down their IC50.
Give the quantity in nM, number only.

Summary for this compound, Cc1c(-c2c(C)c3c(c(C)c2[C@H](OC(C)(C)C)C(=O)O)CN(C(=O)NCC(C)(C)C)C3)cc(F)c2c1CCCO2 (atropisomer, axis not shown; (M)) : IC50 is 4

Summary for this compound, `Cc1ccc(F)cc1C(=O)N1Cc2c(C)c(-c3cc(F)c4c(c3C)CCCO4)c([C@H](OC(C)(C)C)C(=O)O)c(C)c2C1` : IC50 is 2

Summary for this compound, Cc1c(-c2c(C)c3c(c(C)c2[C@H](OC(C)(C)C)C(=O)O)CN(C(=O)c2cccc(Cl)c2)C3)cc(F)c2c1CCCO2 (atropisomer, axis not shown; (M)) : IC50 is 13

Summary for this compound, Cc1c(-c2c(C)c3c(c(C)c2[C@H](OC(C)(C)C)C(=O)O)CN(C(=O)c2ccc4c(cnn4C)c2)C3)cc(F)c2c1CCCO2 (atropisomer, axis not shown; (M)) : IC50 is 8

Summary for this compound, `Cc1ccc(-c2c(C)c3c(c(C)c2[C@H](OC(C)(C)C)C(=O)O)CN(C(=O)N2CCC[C@H]2C)C3)cc1` : IC50 is 5

---

Please go through the items and note down their IC50.
Test system: HIV in the HTLV-1 transformed cell line MT-4
ASSAY EXPLANATION: organism not typed
Type: cell-based
CONDITION INFO: MT4, 96 h, MT-4 cells; luciferase/cell titer glo readout after 96 hours; 10 point dose response
Give the quantity in nM, number only.

Summary for this compound, `Cc1ccc(-c2c(C)c3c(c(C)c2[C@H](OC(C)(C)C)C(=O)O)CN(C(=O)c2cn(C)cn2)C3)cc1` : IC50 is 67

Summary for this compound, `Cc1ccc(-c2c(C)c3c(c(C)c2[C@H](OC(C)(C)C)C(=O)O)CN(C(=O)c2ccc(F)cc2F)C3)cc1` : IC50 is 5

Summary for this compound, `Cc1ccc(-c2c(C)c3c(c(C)c2[C@H](OC(C)(C)C)C(=O)O)CN(C(=O)NCC(F)(F)F)C3)cc1` : IC50 is 44

Summary for this compound, `Cc1ccc(-c2c(C)c3c(c(C)c2[C@H](OC(C)(C)C)C(=O)O)CN(C(=O)c2cc(Cl)ccc2C)C3)cc1` : IC50 is 6

Summary for this compound, Cc1c(-c2c(C)c3c(c(C)c2[C@H](OC(C)(C)C)C(=O)O)CN(C(=O)c2ccccn2)C3)cc(F)c2c1CCCO2 (atropisomer, axis not shown; (M)) : IC50 is 2

Summary for this compound, `Cc1ccc(-c2c(C)c3c(c(C)c2[C@H](OC(C)(C)C)C(=O)O)CN(Cc2cccc(N4CCOCC4)c2)C3)cc1` : IC50 is 4080

Summary for this compound, Cc1cccc(C(=O)N2Cc3c(C)c(-c4cc(F)c5c(c4C)CCCO5)c([C@H](OC(C)(C)C)C(=O)O)c(C)c3C2)c1C (atropisomer, axis not shown; (M)) : IC50 is 5

Summary for this compound, `Cc1ccc(-c2c(C)c3c(c(C)c2[C@H](OC(C)(C)C)C(=O)O)CN(C(=O)N(C)C2CCCCC2)C3)cc1` : IC50 is 55

Summary for this compound, `Cc1ccc(-c2c(C)c3c(c(C)c2[C@H](OC(C)(C)C)C(=O)O)CN(C(=O)c2ccc4c(c2)OCO4)C3)cc1` : IC50 is 4

Summary for this compound, `Cc1ccc(-c2c(C)c3c(c(C)c2[C@H](OC(C)(C)C)C(=O)O)CN(C(=O)N2CCC(F)(F)C2)C3)c(Cl)c1` : IC50 is 4

Summary for this compound, `Cc1c2c(c(C)c([C@H](OC(C)(C)C)C(=O)O)c1C1=CCC(C)(C)CC1)CN(C(=O)c1cccc(F)c1)C2` : IC50 is 4

Summary for this compound, `Cc1ccc(-c2c(C)c3c(c(C)c2[C@H](OC(C)(C)C)C(=O)O)CN(C(=O)C2CCC(F)(F)CC2)C3)cc1` : IC50 is 16

Summary for this compound, COc1ccc(C)cc1C(=O)N1Cc2c(C)c(-c3cc(F)c4c(c3C)CCCO4)c([C@H](OC(C)(C)C)C(=O)O)c(C)c2C1 (atropisomer, axis not shown; (M)) : IC50 is 4
